- assayed-system: Sirt2 (Homo sapiens)
- Construct: comprising amino acids 50–389 (C-terminal); His-tag (N); purchased Reaction Biology Corporation (Malvern, PA, USA), in-house enzyme of the contract laboratory; host or cells: E. coli
- Sequence (Q8IXJ6 50-389): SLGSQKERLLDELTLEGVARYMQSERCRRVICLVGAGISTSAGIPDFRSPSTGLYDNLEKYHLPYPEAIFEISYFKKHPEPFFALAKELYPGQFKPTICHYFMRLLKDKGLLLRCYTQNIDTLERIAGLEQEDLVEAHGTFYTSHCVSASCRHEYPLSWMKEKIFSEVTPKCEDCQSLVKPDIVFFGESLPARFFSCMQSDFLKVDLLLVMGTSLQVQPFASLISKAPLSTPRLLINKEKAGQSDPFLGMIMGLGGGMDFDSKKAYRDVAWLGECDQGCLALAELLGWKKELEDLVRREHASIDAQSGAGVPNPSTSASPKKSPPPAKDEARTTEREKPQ
- assay-remarks: Fluorescence-based Sirt2 deacetylase inhibition assay (Reaction Biology)
- Assay type: biochemical
- test-settings: fluorescence-based assay, rounded values; read-out: IC50 Sirt2
measure-name: IC50 (nM)
State just the number; it will be interpreted in nM.

Recorded IC50, per entry:
# sample-smiles, assayed-system, IC50, nM
data = [
    ("Cc1cc(C)nc(SCC(=O)Nc2ncc(COc3cccc4ccccc34)s2)n1", "Sirt2 (Homo sapiens)", 6500),
    ("Cc1cc(C)nc(SCC(=O)Nc2ncc(COc3ccc(NC(=O)c4cccs4)cc3)s2)n1", "Sirt2 (Homo sapiens)", 94),
    ("Cc1cc(C)nc(SCC(=O)Nc2ncc(COc3ccc(NC(=O)c4cnn(C)c4)c(Br)c3)s2)n1", "Sirt2 (Homo sapiens)", 16),
]

Tell me the measured IC50 of `Cc1cc(C)nc(SCC(=O)Nc2ncc(COc3ccc(NC(=O)c4cnn(C)c4)cc3)s2)n1` , please. 66

Tell me the measured IC50 of `Cc1cc(C)nc(SCC(=O)Nc2ncc(COc3ccccc3)s2)n1` , please. 5300

Tell me the measured IC50 of `Cc1cc(C)nc(SCC(=O)Nc2ncc(COc3ccc(NC(=O)c4cnn(C)c4)c(I)c3)s2)n1` , please. 49

* * *

- System: Sirt1
- Construct: includes amino acids 1–747 (C-terminal); His-tag (N); purchased Reaction Biology Corporation (Malvern, PA, USA), in-house enzyme of the contract laboratory; host or cells: E. coli
- assay-remarks: Fluorescence-based Sirt1 subtype selectivity assay (Reaction Biology)
- Format: biochemical
- test-settings: 50 µM inhibitor, duplicate, relative to no-inhibitor control
Param threshold (90%) applies to Residual Enzyme Activity [%] ± SD Sirt1; output condition met when value >= threshold, condition not met when value < threshold.

Solved entries:
# compound, label-class
rows = [
    ("Cc1cc(C)nc(SCC(=O)Nc2ncc(COc3ccc(NC(=O)c4cnn(C)c4)c(I)c3)s2)n1 [RW-95]", "condition not met"),
    ("Cc1cc(C)nc(SCC(=O)Nc2ncc(COc3ccc(NC(=O)c4cnn(C)c4)cc3)s2)n1 [FM358]", "condition not met"),
    ("Cc1cc(C)nc(SCC(=O)Nc2ncc(COc3ccc(NC(=O)c4cccs4)cc3)s2)n1 [FM352]", "condition met"),
]

Kindly determine if Residual Enzyme Activity [%] ± SD Sirt1 recorded for Cc1cc(C)nc(SCC(=O)Nc2ncc(COc3ccc(NC(=O)c4cnn(C)c4)c(Cl)c3)s2)n1 [RW-99] is above or exactly 90%. condition not met

Kindly determine if Residual Enzyme Activity [%] ± SD Sirt1 recorded for Cc1cc(C)nc(SCC(=O)Nc2ncc(COc3ccc(NC(=O)c4cnn(C)c4)c(Br)c3)s2)n1 [RW-93] is above or exactly 90%. condition not met

Kindly determine if Residual Enzyme Activity [%] ± SD Sirt1 recorded for Cc1cc(C)nc(SCC(=O)Nc2ncc(COc3ccccc3)s2)n1 [FM345] is above or exactly 90%. condition met

* * *

Overview of reported Residual Enzyme Activity [%] ± SD Sirt5 across a group of compounds:
- Tested on: Sirt5
- Construct: consisting of amino acids 37–310 (C-terminal); His-tag (N); purchased Reaction Biology Corporation (Malvern, PA, USA), in-house enzyme of the contract laboratory; host or cells: E. coli
- assay-remarks: Fluorescence-based Sirt5 subtype selectivity assay (Reaction Biology)
- Type: biochemical
- test-settings: 50 µM inhibitor, duplicate, relative to no-inhibitor control
State just the number; it will be interpreted in %.

Recorded Residual Enzyme Activity [%] ± SD Sirt5, per entry:
# compound, Residual Enzyme Activity [%] ± SD Sirt5 (%)
measured = [
    ("Cc1cc(C)nc(SCC(=O)Nc2ncc(COc3ccc(NC(=O)c4cnn(C)c4)c(Br)c3)s2)n1 [RW-93]", 53.0),
    ("Cc1cc(C)nc(SCC(=O)Nc2ncc(COc3ccc(NC(=O)c4cnn(C)c4)c(I)c3)s2)n1 [RW-95]", 48.2),
]

Tell me the measured Residual Enzyme Activity [%] ± SD Sirt5 of Cc1cc(C)nc(SCC(=O)Nc2ncc(COc3cccc4ccccc34)s2)n1 [FM368] , please. 89.1
